System: MCF7
assay summary: Cytotoxicity against human MCF7 cells after 72 hrs by MTT assay
Assay type: functional, cell-based
value type: Activity

INSERT INTO assay_data (substance_smiles, value_type, test_result) VALUES
  ('C=C(C)[C@@H]1CC[C@]2(C(=O)OCCN3CCOCC3)CC[C@]3(C)[C@H](CC[C@@H]4[C@@]5(C)CCC(=O)C(C)(C)[C@@H]5CC[C@]43C)[C@@H]12', 'Activity', 'Dose-dependent effect'),
  ('C=C(C)[C@@H]1CC[C@]2(C(=O)OCCCN(CC)CC)CC[C@]3(C)[C@H](CC[C@@H]4[C@@]5(C)CCC(=O)C(C)(C)[C@@H]5CC[C@]43C)[C@@H]12', 'Activity', 'Dose-dependent effect'),
  ('C=C(C)[C@@H]1CC[C@]2(C(=O)OCCCN3CCOCC3)CC[C@]3(C)[C@H](CC[C@@H]4[C@@]5(C)CCC(=O)C(C)(C)[C@@H]5CC[C@]43C)[C@@H]12', 'Activity', 'Dose-dependent effect');

###

Test system: A-375
assay summary: Cytotoxicity against human A375 cells after 72 hrs by MTT assay
Type: functional, cell-based
experimental context: A-375, 72 h
pIC50: −log10 of the molar value.
Listed below: pIC50 values for each entry.
value type: pIC50

INSERT INTO assay_data (molecule, value_type, inequality_operator, test_result) VALUES
  ('C=C(C)[C@@H]1CC[C@]2(C(=O)OCCCN3CCOCC3)CC[C@]3(C)[C@H](CC[C@@H]4[C@@]5(C)CCC(=O)C(C)(C)[C@@H]5CC[C@]43C)[C@@H]12', 'pIC50', '=', 5.07),
  ('C=C(C)[C@@H]1CC[C@]2(C(=O)OCCN3CCN(C(=O)c4c(Cl)cccc4Cl)CC3)CC[C@]3(C)[C@H](CC[C@@H]4[C@@]5(C)CCC(=O)C(C)(C)[C@@H]5CC[C@]43C)[C@@H]12', 'pIC50', '=', 4.76),
  ('C=C(C)[C@@H]1CC[C@]2(C(=O)O)CC[C@]3(C)[C@H](CC[C@@H]4[C@@]5(C)CCC(=O)C(C)(C)[C@@H]5CC[C@]43C)[C@@H]12 [BETUNOLIC ACID]', 'pIC50', '=', 4.54),
  ('C=C(C)[C@@H]1CC[C@]2(C(=O)OCCN3CCN(C(=O)CCCCCCCC)CC3)CC[C@]3(C)[C@H](CC[C@@H]4[C@@]5(C)CCC(=O)C(C)(C)[C@@H]5CC[C@]43C)[C@@H]12', 'pIC50', '<', 4.70),
  ('C=C(C)[C@@H]1CC[C@]2(C(=O)OCCCN(CC)CC)CC[C@]3(C)[C@H](CC[C@@H]4[C@@]5(C)CCC(=O)C(C)(C)[C@@H]5CC[C@]43C)[C@@H]12', 'pIC50', '=', 5.03),
  ('C=C(C)[C@@H]1CC[C@]2(C(=O)OCCCN3CCCCC3)CC[C@]3(C)[C@H](CC[C@@H]4[C@@]5(C)CCC(=O)C(C)(C)[C@@H]5CC[C@]43C)[C@@H]12', 'pIC50', '=', 5.02),
  ('C=C(C)[C@@H]1CC[C@]2(C(=O)OCCCBr)CC[C@]3(C)[C@H](CC[C@@H]4[C@@]5(C)CCC(=O)C(C)(C)[C@@H]5CC[C@]43C)[C@@H]12', 'pIC50', '<', 4.70),
  ('C=C(C)[C@@H]1CC[C@]2(C(=O)OCCCCN(CC)CC)CC[C@]3(C)[C@H](CC[C@@H]4[C@@]5(C)CCC(=O)C(C)(C)[C@@H]5CC[C@]43C)[C@@H]12', 'pIC50', '=', 5.04),
  ('C=C(C)[C@@H]1CC[C@]2(C(=O)OCCCN3CCCC3)CC[C@]3(C)[C@H](CC[C@@H]4[C@@]5(C)CCC(=O)C(C)(C)[C@@H]5CC[C@]43C)[C@@H]12', 'pIC50', '=', 5.08),
  ('C=C(C)[C@@H]1CC[C@]2(C(=O)OCCN3CCCC3)CC[C@]3(C)[C@H](CC[C@@H]4[C@@]5(C)CCC(=O)C(C)(C)[C@@H]5CC[C@]43C)[C@@H]12', 'pIC50', '=', 5.01);
